Recorded values, source patent EP0145303A1.

Target or test system: PAF (10 nM)-induced aggregation (Cavia porcellus, UniProt P21556)
Sequence (P21556 whole entry): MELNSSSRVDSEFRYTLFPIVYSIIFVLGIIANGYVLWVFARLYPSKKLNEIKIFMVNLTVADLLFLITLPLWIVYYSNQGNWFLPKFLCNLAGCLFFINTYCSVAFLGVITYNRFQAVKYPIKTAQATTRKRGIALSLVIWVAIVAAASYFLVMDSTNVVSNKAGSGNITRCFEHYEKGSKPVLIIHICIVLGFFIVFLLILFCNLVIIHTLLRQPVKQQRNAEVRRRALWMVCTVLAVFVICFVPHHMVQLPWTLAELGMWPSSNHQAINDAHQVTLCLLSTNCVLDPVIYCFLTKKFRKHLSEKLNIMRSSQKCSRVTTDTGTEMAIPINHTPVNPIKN
Protocol details: Inhibitory effect on PAF-induced platelet aggregation (platelet rich plasma, absorbancy method, aggregometer of Born)
Experimental parameters: male guinea pig platelet rich plasma
Would you kindly list pIC50 for each of these molecules?
Value format note: pIC50 is -log10 of concentration (mol/L); just state the number.

Q) Form: Entry = CCCCCCCCCCCCCCCCOCC(COc1ccc(CCCC[N+](C)(C)C)cc1)NC(=O)NC (stereo not shown) | System = PAF (10 nM)-induced aggregation (Cavia porcellus, UniProt P21556) | pIC50 = ____
A) 5.33

Q) Another molecule to check: CCCCCCCCCCCCCCCCOCC(COc1ccc(CCCC[N+](C)(C)C)cc1)OC(C)=O (stereo not shown)
A) 5.30

Q) Another molecule to check: CCCCCCCCCCCCCCCCOCC(COCCCc1ccc([N+](C)(C)C)cc1)NC(=O)OCC(C)C (racemic)
A) 5.43

Q) Another molecule to check: CCCCCCCCCCCCCCCCOCC(COc1ccc(CCCC[N+](C)(C)C)cc1)NC(C)=O (stereo not shown)
A) 5.17
